Taken from patent US20160052926A1.

Molecular target: Recombinant human FGFR1 (Homo sapiens, UniProt P11362)
Sequence (P11362 22-822): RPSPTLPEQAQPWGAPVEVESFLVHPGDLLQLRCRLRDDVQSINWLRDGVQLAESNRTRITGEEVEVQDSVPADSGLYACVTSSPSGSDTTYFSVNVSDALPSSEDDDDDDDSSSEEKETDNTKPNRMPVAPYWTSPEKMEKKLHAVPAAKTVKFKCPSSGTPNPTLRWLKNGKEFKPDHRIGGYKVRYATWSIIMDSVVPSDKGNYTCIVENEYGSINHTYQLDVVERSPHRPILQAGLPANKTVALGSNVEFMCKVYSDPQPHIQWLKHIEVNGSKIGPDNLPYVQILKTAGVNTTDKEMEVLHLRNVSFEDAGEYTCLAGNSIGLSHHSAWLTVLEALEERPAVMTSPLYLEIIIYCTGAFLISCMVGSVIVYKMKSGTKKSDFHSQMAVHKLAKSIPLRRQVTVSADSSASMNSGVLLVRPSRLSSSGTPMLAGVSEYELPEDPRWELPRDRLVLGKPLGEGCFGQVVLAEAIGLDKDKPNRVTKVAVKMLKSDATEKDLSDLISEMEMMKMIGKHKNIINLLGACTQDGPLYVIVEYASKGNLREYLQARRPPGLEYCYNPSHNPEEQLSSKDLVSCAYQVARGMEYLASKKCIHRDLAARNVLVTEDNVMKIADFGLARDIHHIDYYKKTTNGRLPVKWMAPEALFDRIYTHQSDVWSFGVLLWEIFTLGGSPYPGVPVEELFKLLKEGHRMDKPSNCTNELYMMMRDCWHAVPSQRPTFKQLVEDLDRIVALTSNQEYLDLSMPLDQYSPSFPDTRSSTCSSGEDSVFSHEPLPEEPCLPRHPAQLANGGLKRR
Assay: Transcreener Kinase Assay of FGFR1
Type: biochemical
Conditions: read-out: FGFR1 (FP) IC50
# IC50 per entry

[
  {
    "sample smiles": "CCN(CC)CCn1cc(Nc2ncc(CCc3cc(C(=O)NC)cc(OC)c3F)cn2)cn1",
    "unit descriptor": "nM",
    "IC50": 23
  },
  {
    "sample smiles": "CNC(=O)c1cc(CCc2cnc(Nc3cnn(C4CCOCC4)c3)nc2)c(F)c(OC)c1",
    "unit descriptor": "nM",
    "IC50": 12
  },
  {
    "sample smiles": "C#Cc1ccc(Nc2ncc(OCc3cc(C(=O)NC)cc(OC)c3F)cn2)cc1",
    "unit descriptor": "nM",
    "IC50": 119
  },
  {
    "sample smiles": "CNC(=O)c1cc(CCc2cnc(Nc3cnn(CCOC)c3)nc2)c(F)c(OC)c1",
    "unit descriptor": "nM",
    "IC50": 15
  },
  {
    "sample smiles": "CNC(=O)c1cc(CCc2cnc(Nc3cnn([C@H]4CCN(C)C4)c3)nc2)c(F)c(OC)c1",
    "unit descriptor": "nM",
    "IC50": 16
  },
  {
    "sample smiles": "CCN1CCN(c2ccc(Nc3ncc(CCc4cc(OC)cc(C(=O)NOC)c4)cn3)cc2)CC1",
    "unit descriptor": "nM",
    "IC50": 4
  },
  {
    "sample smiles": "CNC(=O)c1cc(CCc2cnc(Nc3ccc(N4C[C@@H](C)N[C@@H](C)C4)cc3)nc2)c(F)c(OC)c1",
    "unit descriptor": "nM",
    "IC50": 9
  },
  {
    "sample smiles": "CNC(=O)c1cc(CCc2cnc(Nc3ccc4ncnn4c3)nc2)c(F)c(OC)c1",
    "unit descriptor": "nM",
    "IC50": 34
  },
  {
    "sample smiles": "CCN1CCN(c2ccc(Nc3ccc(CCc4cc(OC)cc(C(=O)NOC)c4)cn3)cn2)CC1",
    "unit descriptor": "nM",
    "IC50": 41
  },
  {
    "sample smiles": "CONC(=O)c1cc(CCc2cnc(Nc3cccc(N4C[C@@H](C)N[C@@H](C)C4)c3)nc2)cc(OC)c1",
    "unit descriptor": "nM",
    "IC50": 12
  },
  {
    "sample smiles": "CNC(=O)c1cc(CCc2cnc(Nc3cnn(C4CCNCC4)c3)nc2)c(Cl)c(OC)c1",
    "unit descriptor": "nM",
    "IC50": 8
  },
  {
    "sample smiles": "CNC(=O)c1cc(CCc2cnc(Nc3ccc4nnc(C)n4c3)nc2)c(F)c(OC)c1",
    "unit descriptor": "nM",
    "IC50": 42
  },
  {
    "sample smiles": "CCn1cc(Nc2ncc(CCc3cc(C(=O)NC)cc(OC)c3Br)cn2)cn1",
    "unit descriptor": "nM",
    "IC50": 15
  },
  {
    "sample smiles": "CNC(=O)c1cc(CCc2cnc(Nc3ccc4nnnn4c3)nc2)c(F)c(OC)c1",
    "unit descriptor": "nM",
    "IC50": 63
  },
  {
    "sample smiles": "CCN1CCN(c2ccc(Nc3ncc(CCc4cc(C(=O)NC)cc(OC)c4F)cn3)cc2)CC1",
    "unit descriptor": "nM",
    "IC50": 5
  },
  {
    "sample smiles": "CNC(=O)c1cc(CCc2cnc(Nc3cnn(CCN4CCOCC4)c3)nc2)c(F)c(OC)c1",
    "unit descriptor": "nM",
    "IC50": 12
  }
]
